tested on: HEK-293T; assay: Multiplex assay against HEK293T; format: toxicity, cell-based; settings: human, 24 h, 1 µM, compound concentration 1 uM, replicate 2
PROPERTY_LABEL: Population Normal (%)
Give the value, in units of %, as a plain number.

NC(=O)Nc1cc(-c2cccc(F)c2)sc1C(=O)N[C@H]1CCCNC1 [AZD-7762] : 93

Report Population Normal (%) for OC1(c2ccc(Cl)cc2)CCN(Cc2c[nH]c3ccccc23)CC1 tested on HEK-293T.
94

Next compound up: CN(C)C(=O)/C(C#N)=C/c1ccc(-c2nc3cnc4[nH]ccc4c3n2C2CCCCC2)o1
97

What about this compound? O=C1NCN(c2ccccc2)C12CCN(CCCOc1ccc(F)cc1)CC2 [SPIRAMIDE]
96

Moving on to the next compound: C=CC(=O)Nc1ccc2ncnc(Nc3ccc(OCc4cccc(F)c4)c(Cl)c3)c2c1.Cc1ccc(S(=O)(=O)O)cc1
97

Also need CN1CCCC(n2nc(Cc3ccc(Cl)cc3)c3ccccc3c2=O)CC1.Cl (stereo not drawn) [AZELASTINE HYDROCHLORIDE] , thanks.
95

And then Cc1[nH]c(/C=C2\C(=O)Nc3ccc(S(=O)(=O)N(C)c4cccc(Cl)c4)cc32)c(C)c1C(=O)N1CCN(C)CC1 , what is it?
96

Again, but for Cc1nc(Nc2n[nH]c3c2CN(C(=O)N[C@H](CN(C)C)c2ccccc2)C3(C)C)c2sccc2n1 [PF-03758309]
96

* * *

Reported values of Population Hoechst High Intensity Objects (%) for individual entries
test system: Fibroblast; test: Multiplex assay against human fibroblast; assay type: toxicity, cell-based; conditions: 48 h, 10 µM, compound concentration 10 uM, replicate 1
Write down the value, and be sure its unit follows.

Here's what some known entries look like.
C=CC(=O)Nc1cccc(C(=O)Nc2ccc(Nc3cc(-c4[nH]c(SC)nc4C)ccn3)cc2)c1 : 12%
O=C1NCN(c2ccccc2)C12CCN(CCCOc1ccc(F)cc1)CC2 [SPIRAMIDE] : 22%
Cc1[nH]c(/C=C2\C(=O)Nc3ccc(S(=O)(=O)N(C)c4cccc(Cl)c4)cc32)c(C)c1C(=O)N1CCN(C)CC1 : 11%
OC1(c2ccc(Cl)cc2)CCN(Cc2c[nH]c3ccccc23)CC1 : 40%
CN(C)C(=O)/C(C#N)=C/c1ccc(-c2nc3cnc4[nH]ccc4c3n2C2CCCCC2)o1 : 62%
CC(C)NCC(O)COc1ccc(CCOCC2CC2)cc1.Cl (centres undefined) [BETAXOLOL HYDROCHLORIDE] : 24%
C[C@@]1(C(=O)Nc2ccc(F)nc2)CCCN1c1nc(Nc2cc(C3CC3)n[nH]2)c2cccn2n1 : 27%
C[C@@H](NCCCc1cccc(C(F)(F)F)c1)c1cccc2ccccc12.Cl [CINACALCET HYDROCHLORIDE] : 13%
CCn1c(=O)c(-c2ccc(Cl)cc2Cl)cc2cnc(Nc3ccc(N4CCNCC4)c(F)c3)nc21 : 67%
Cc1c(-c2ccc(O)cc2)n(Cc2ccc(OCCN3CCCCCC3)cc2)c2ccc(O)cc12 : 18%

Request the reported Population Hoechst High Intensity Objects (%) associated with Cc1cc(C)cc(-c2cnc3cc(Cl)c(-c4cccc(O)c4)cc3c2OCCCN)c1
39%

* * *

// reported Population Tubulin-Different-Phenotype (%) per item
system: U2OS; assay: Multiplex assay against U2OS; format: toxicity, cell-based; details: human, 24 h, 10 µM, compound concentration 10 uM, replicate 1
Quick reminder: number only, in %, skip the unit.

Illustrative cases are given below, each with its answer.
CN1CCN(CCOc2cc(OC3CCOCC3)c3c(Nc4c(Cl)ccc5c4OCO5)ncnc3c2)CC1 [SARACATINIB] : 100
CNCc1ccc(-c2cc(-c3nc(-c4ccc(S(=O)(=O)C(C)C)cc4)cnc3N)on2)cc1 [BERZOSERTIB] : 75
CN(C)CC#Cc1ccc(OCCCc2sc(N3CCc4cccc(C(=O)Nc5nc6ccccc6s5)c4C3)nc2C(=O)O)c(F)c1 [A-1155463] : 12
Cc1nc(Nc2n[nH]c3c2CN(C(=O)N[C@H](CN(C)C)c2ccccc2)C3(C)C)c2sccc2n1 [PF-03758309] : 88
COc1cc(-n2cnc3cc(-c4ccc(Cl)cc4)sc3c2=O)ccc1OCCN1CCCC1 : 100

Population Tubulin-Different-Phenotype (%) of CC[C@H](C)C(=O)O[C@H]1C[C@@H](C)C=C2C=C[C@H](C)[C@H](CC[C@@H]3C[C@@H](O)CC(=O)O3)[C@H]21 [LOVASTATIN] on U2OS?
9

Moving on to Cl.N#Cc1ccc2[nH]cc(CCCCN3CCN(c4ccc5oc(C(N)=O)cc5c4)CC3)c2c1 [VILAZODONE HYDROCHLORIDE]
93

Proceed to CNc1nc(NCc2ccc(NS(C)(=O)=O)cc2Cl)cc(-c2ccccn2)n1
29

* * *

tested on: U2OS; test: Multiplex assay against U2OS; type: toxicity, cell-based; conditions: human, 12 h, 10 µM, compound concentration 10 uM, replicate 2
Rule: Population Healthy Nuclei (%) below 40% gives T, anything at or above gives F.

CN(C)CC#Cc1ccc(OCCCc2sc(N3CCc4cccc(C(=O)Nc5nc6ccccc6s5)c4C3)nc2C(=O)O)c(F)c1 : F

Record CN(C)C(=O)/C(C#N)=C/c1ccc(-c2nc3cnc4[nH]ccc4c3n2C2CCCCC2)o1 : is its Population Healthy Nuclei (%) strictly below 40%?
F

Now the same for Cc1cc(C)cc(-c2cnc3cc(Cl)c(-c4cccc(O)c4)cc3c2OCCCN)c1
T

* * *

tested on: HEK-293T; test: Multiplex assay against HEK293T; assay type: toxicity, cell-based; conditions: human, 48 h, 1 µM, compound concentration 1 uM, replicate 1
Population Hoechst High Intensity Objects (%) values by entry
The reply should contain only the number, in %.

Reference set, count: 4
CN1CCN(CCOc2cc(OC3CCOCC3)c3c(Nc4c(Cl)ccc5c4OCO5)ncnc3c2)CC1 : 18
COc1ncc(-c2ccc3nccc(-c4ccnnc4)c3c2)cc1NS(=O)(=O)c1ccc(F)cc1F : 22
c1cn2cc(-c3ccc4cn[nH]c4c3)nc(Nc3ccc(N4CCOCC4)cc3)c2n1 : 7
COc1cc(-n2cnc3cc(-c4ccc(Cl)cc4)sc3c2=O)ccc1OCCN1CCCC1 : 9

Look up Population Hoechst High Intensity Objects (%) for this compound: Cc1nc(-c2ccc(-c3ccc(C(=O)N4CCc5cc6c(cc54)C4(CCN(C)CC4)CO6)cc3)c(C)c2)no1
12

Now the same for CN(C)C(=O)N[C@H]1CC[C@H](CCN2CCN(c3cccc(Cl)c3Cl)CC2)CC1.Cl [CARIPRAZINE HYDROCHLORIDE]
7

Try this compound too: C=CC(=O)Nc1cccc(C(=O)Nc2ccc(Nc3cc(-c4[nH]c(SC)nc4C)ccn3)cc2)c1
16

# iterate: CC[C@H](C)C(=O)O[C@H]1C[C@@H](C)C=C2C=C[C@H](C)[C@H](CC[C@@H]3C[C@@H](O)CC(=O)O3)[C@H]21
15

Cool, now Cc1csc2c(N[C@@H](C)CN3CCN(S(=O)(=O)c4ccc(Cl)c(Cl)c4)CC3)ncnc12
17

Please give the result for CN(C)CC#Cc1ccc(OCCCc2sc(N3CCc4cccc(C(=O)Nc5nc6ccccc6s5)c4C3)nc2C(=O)O)c(F)c1 too.
17

* * *

Measured Population Membrane Permeable-Phenotype (%) by item
tested on: HEK-293T; experiment: Multiplex assay against HEK293T; type: toxicity, cell-based; settings: human, 48 h, 10 µM, compound concentration 10 uM, replicate 1
Numbers only here, please. The scale is %.

Consider the reported Population Membrane Permeable-Phenotype (%) for these molecules:
CN1CCCC(n2nc(Cc3ccc(Cl)cc3)c3ccccc3c2=O)CC1.Cl (centres undefined) [AZELASTINE HYDROCHLORIDE] : 0
C=CC(=O)Nc1ccc2ncnc(Nc3ccc(OCc4cccc(F)c4)c(Cl)c3)c2c1.Cc1ccc(S(=O)(=O)O)cc1 : 5
Nc1c(C(=O)NCc2ccc(C(=O)NCCCC3CCCCC3)cc2)cnn1-c1ccccc1 : 0

I'd like to know its Population Membrane Permeable-Phenotype (%). The molecule in question is C=CC(=O)Nc1cccc(C(=O)Nc2ccc(Nc3cc(-c4[nH]c(SC)nc4C)ccn3)cc2)c1
4

* * *

Recorded Population Membrane Permeable-Phenotype (%) by entry
system: Fibroblast; experiment: Multiplex assay against human fibroblast; format: toxicity, cell-based; conditions: 48 h, 10 µM, compound concentration 10 uM, replicate 2
Express it in %; write the number only.

C=CC(=O)Nc1ccc2ncnc(Nc3ccc(OCc4cccc(F)c4)c(Cl)c3)c2c1.Cc1ccc(S(=O)(=O)O)cc1 : 12
CN1CCCC(n2nc(Cc3ccc(Cl)cc3)c3ccccc3c2=O)CC1.Cl (centres undefined) [AZELASTINE HYDROCHLORIDE] : 22
COc1ncc(-c2ccc3nccc(-c4ccnnc4)c3c2)cc1NS(=O)(=O)c1ccc(F)cc1F : 20

I would be grateful if you could share the reported Population Membrane Permeable-Phenotype (%) for CNCc1ccccc1-c1csc([C@H](C)Nc2nc(C)nc3cc(OC)c(OC)cc23)c1 .
0
